B1: CPXM2 (parent)
chain: TASTKNCMVGYDMGATRCDFTLSK

Variants of: B1
Assay: protein stability index of a GFP-peptide fusion (GPS, HEK-293T) (PSI 1-6); higher = more stable;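 further: lentivirally expressed fusions sorted by FACS into six bins by GFP to DsRed ratio, PSI derived from sequencing read proportions per bin multiplied by bin number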
Settings: c terminus: a fixed tail appended
If the reported protein stability index equals or exceeds 3, assign fulfilled. If not, assign not fulfilled.

[
  {
    "variantDescription": "S3D",
    "categoryLabel": "fulfilled"
  },
  {
    "variantDescription": "T21Q",
    "categoryLabel": "fulfilled"
  },
  {
    "variantDescription": "K5P",
    "categoryLabel": "fulfilled"
  },
  {
    "variantDescription": "C7Y",
    "categoryLabel": "not fulfilled"
  },
  {
    "variantDescription": "C18Y",
    "categoryLabel": "not fulfilled"
  },
  {
    "variantDescription": "T21D",
    "categoryLabel": "not fulfilled"
  },
  {
    "variantDescription": "G14N",
    "categoryLabel": "fulfilled"
  },
  {
    "variantDescription": "K5M",
    "categoryLabel": "not fulfilled"
  },
  {
    "variantDescription": "S23I",
    "categoryLabel": "not fulfilled"
  },
  {
    "variantDescription": "D19R",
    "categoryLabel": "not fulfilled"
  },
  {
    "variantDescription": "L22I",
    "categoryLabel": "not fulfilled"
  },
  {
    "variantDescription": "T1K",
    "categoryLabel": "not fulfilled"
  },
  {
    "variantDescription": "M13N",
    "categoryLabel": "fulfilled"
  },
  {
    "variantDescription": "S3V",
    "categoryLabel": "fulfilled"
  },
  {
    "variantDescription": "L22R",
    "categoryLabel": "not fulfilled"
  },
  {
    "variantDescription": "A15T",
    "categoryLabel": "not fulfilled"
  },
  {
    "variantDescription": "T21P",
    "categoryLabel": "not fulfilled"
  },
  {
    "variantDescription": "C7R",
    "categoryLabel": "fulfilled"
  },
  {
    "variantDescription": "F20V",
    "categoryLabel": "not fulfilled"
  },
  {
    "variantDescription": "F20M",
    "categoryLabel": "not fulfilled"
  },
  {
    "variantDescription": "R17V",
    "categoryLabel": "fulfilled"
  },
  {
    "variantDescription": "S3P",
    "categoryLabel": "not fulfilled"
  },
  {
    "variantDescription": "K24M",
    "categoryLabel": "not fulfilled"
  },
  {
    "variantDescription": "S23E",
    "categoryLabel": "not fulfilled"
  },
  {
    "variantDescription": "S23W",
    "categoryLabel": "not fulfilled"
  },
  {
    "variantDescription": "G14W",
    "categoryLabel": "not fulfilled"
  },
  {
    "variantDescription": "N6I",
    "categoryLabel": "not fulfilled"
  },
  {
    "variantDescription": "K5V",
    "categoryLabel": "not fulfilled"
  },
  {
    "variantDescription": "D19E",
    "categoryLabel": "not fulfilled"
  },
  {
    "variantDescription": "K24G",
    "categoryLabel": "not fulfilled"
  },
  {
    "variantDescription": "T4F",
    "categoryLabel": "not fulfilled"
  },
  {
    "variantDescription": "T16V",
    "categoryLabel": "not fulfilled"
  },
  {
    "variantDescription": "F20W",
    "categoryLabel": "not fulfilled"
  },
  {
    "variantDescription": "S23D",
    "categoryLabel": "not fulfilled"
  },
  {
    "variantDescription": "R17F",
    "categoryLabel": "not fulfilled"
  },
  {
    "variantDescription": "G10E",
    "categoryLabel": "not fulfilled"
  },
  {
    "variantDescription": "C7V",
    "categoryLabel": "fulfilled"
  },
  {
    "variantDescription": "D12A",
    "categoryLabel": "not fulfilled"
  },
  {
    "variantDescription": "D12R",
    "categoryLabel": "not fulfilled"
  },
  {
    "variantDescription": "R17C",
    "categoryLabel": "fulfilled"
  },
  {
    "variantDescription": "S23Q",
    "categoryLabel": "not fulfilled"
  },
  {
    "variantDescription": "D12S",
    "categoryLabel": "not fulfilled"
  },
  {
    "variantDescription": "Y11M",
    "categoryLabel": "not fulfilled"
  },
  {
    "variantDescription": "C7P",
    "categoryLabel": "fulfilled"
  },
  {
    "variantDescription": "A2E",
    "categoryLabel": "fulfilled"
  },
  {
    "variantDescription": "C18V",
    "categoryLabel": "not fulfilled"
  },
  {
    "variantDescription": "K24E",
    "categoryLabel": "not fulfilled"
  },
  {
    "variantDescription": "R17S",
    "categoryLabel": "fulfilled"
  },
  {
    "variantDescription": "K5G",
    "categoryLabel": "not fulfilled"
  },
  {
    "variantDescription": "T16P",
    "categoryLabel": "not fulfilled"
  },
  {
    "variantDescription": "L22C",
    "categoryLabel": "not fulfilled"
  },
  {
    "variantDescription": "Y11N",
    "categoryLabel": "not fulfilled"
  },
  {
    "variantDescription": "C7Q",
    "categoryLabel": "fulfilled"
  },
  {
    "variantDescription": "T1H",
    "categoryLabel": "not fulfilled"
  },
  {
    "variantDescription": "F20I",
    "categoryLabel": "not fulfilled"
  },
  {
    "variantDescription": "N6P",
    "categoryLabel": "fulfilled"
  },
  {
    "variantDescription": "C18N",
    "categoryLabel": "not fulfilled"
  },
  {
    "variantDescription": "T16A",
    "categoryLabel": "not fulfilled"
  },
  {
    "variantDescription": "L22D",
    "categoryLabel": "fulfilled"
  },
  {
    "variantDescription": "D12V",
    "categoryLabel": "not fulfilled"
  },
  {
    "variantDescription": "G14V",
    "categoryLabel": "not fulfilled"
  },
  {
    "variantDescription": "T16D",
    "categoryLabel": "fulfilled"
  },
  {
    "variantDescription": "C18E",
    "categoryLabel": "fulfilled"
  },
  {
    "variantDescription": "S23Y",
    "categoryLabel": "not fulfilled"
  }
]

The reported measurements were obtained from the supplement of paper PMC10567573.
